# testedOn: human soluble guanylate cyclase alpha 1 and beta 1 subunits (sGC) (Homo sapiens (Human), UniProt Q02108+Q02153)
# Sequence (Q02108 whole entry partner): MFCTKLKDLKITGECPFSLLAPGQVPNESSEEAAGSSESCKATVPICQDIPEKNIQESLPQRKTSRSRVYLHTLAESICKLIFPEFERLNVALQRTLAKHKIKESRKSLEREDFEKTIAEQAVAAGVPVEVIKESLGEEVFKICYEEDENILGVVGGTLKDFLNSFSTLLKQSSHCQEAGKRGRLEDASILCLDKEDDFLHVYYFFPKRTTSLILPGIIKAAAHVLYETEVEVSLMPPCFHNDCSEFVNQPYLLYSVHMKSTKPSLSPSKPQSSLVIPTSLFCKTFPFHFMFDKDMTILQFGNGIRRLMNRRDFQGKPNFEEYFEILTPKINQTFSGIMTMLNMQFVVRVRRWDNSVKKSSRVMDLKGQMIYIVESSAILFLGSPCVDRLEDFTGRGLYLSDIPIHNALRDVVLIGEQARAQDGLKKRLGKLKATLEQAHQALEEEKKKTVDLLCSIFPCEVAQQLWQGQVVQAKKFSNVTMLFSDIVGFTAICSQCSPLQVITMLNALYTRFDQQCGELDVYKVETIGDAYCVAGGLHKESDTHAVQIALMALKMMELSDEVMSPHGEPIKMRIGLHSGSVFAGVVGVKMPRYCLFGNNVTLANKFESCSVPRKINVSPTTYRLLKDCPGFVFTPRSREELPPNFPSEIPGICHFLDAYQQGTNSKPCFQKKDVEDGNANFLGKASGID
# Sequence (Q02153 whole entry): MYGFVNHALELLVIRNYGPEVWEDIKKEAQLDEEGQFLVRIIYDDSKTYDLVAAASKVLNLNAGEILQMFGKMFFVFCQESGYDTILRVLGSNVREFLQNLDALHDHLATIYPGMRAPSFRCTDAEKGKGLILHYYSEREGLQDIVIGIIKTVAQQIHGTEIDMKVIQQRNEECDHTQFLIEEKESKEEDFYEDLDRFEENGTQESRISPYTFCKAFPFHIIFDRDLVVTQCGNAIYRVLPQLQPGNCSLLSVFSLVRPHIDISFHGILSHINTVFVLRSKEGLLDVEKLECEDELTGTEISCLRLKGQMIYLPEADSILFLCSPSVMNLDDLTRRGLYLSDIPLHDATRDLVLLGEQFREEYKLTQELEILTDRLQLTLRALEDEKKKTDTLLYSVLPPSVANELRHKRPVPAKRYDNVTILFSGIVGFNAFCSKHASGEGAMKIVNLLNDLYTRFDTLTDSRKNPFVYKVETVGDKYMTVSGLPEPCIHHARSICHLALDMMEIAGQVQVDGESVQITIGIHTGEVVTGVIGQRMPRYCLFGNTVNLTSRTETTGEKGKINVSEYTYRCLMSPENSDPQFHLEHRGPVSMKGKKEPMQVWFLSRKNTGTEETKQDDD
# test: sGC cellular activator assay (cGMP, HTRF), in the presence and absence of 50% human serum
# measurementParameters: CHO cells stably expressing human sGC alpha 1/beta 1, preincubated with 40 microM ODQ; cGMP by HTRF; Table 2 does not state whether with or without 50% human serum
pEC50: −log10 of the molar value.
pEC50: recorded values

{"molecule": "CO[C@@H]1CN(c2cccc(-c3cccc(C)c3OCc3cc(C)c4c(c3)CCN(C3COC3)CC4)n2)CC[C@@H]1C(=O)O", "pEC50": 8.70}
{"molecule": "COC[C@H]1N(c2cccc(-c3cccc(C)c3OCc3cc(F)c4c(c3)CCN(C3CCOCC3)C4)n2)C[C@@H]2C[C@@]21C(=O)O", "pEC50": 7.85}
{"molecule": "CO[C@H]1CN(c2cccc(-c3cc(C)ccc3OCc3ccc4c(c3)CCN(C3CCOCC3)C4)n2)CC[C@H]1C(=O)O", "pEC50": 6.92}
{"molecule": "CCO[C@H]1CN(c2cccc(-c3cccc(C)c3OCc3cc4c(c(OC)c3)CN(C3CCOCC3)CC4)n2)CC[C@H]1C(=O)O", "pEC50": 6.59}
{"molecule": "Cc1cccc(-c2csc(N3C[C@H]4C[C@@]4(C(=O)O)[C@@H]3C)n2)c1OCc1ccc2c(c1C)CCN(C1CCOCC1)C2", "pEC50": 7.34}
{"molecule": "Cc1cccc(-c2cccc(N3C[C@@H]4C[C@]4(C(=O)O)C3)n2)c1OCc1ccc2c(c1)CCN(C1CCOCC1)C2", "pEC50": 7.68}
{"molecule": "COC[C@H]1N(c2nc(-c3cccc(C)c3OCc3ccc4c(c3C)CCN(C3CCC3)C4)cs2)C[C@@H]2C[C@@]21C(=O)O", "pEC50": 6.98}
{"molecule": "CO[C@H]1CN(c2cccc(-c3cc(C)ccc3OCc3cc(C)c4c(c3)CCN(C3CCOCC3)C4)n2)CC[C@H]1C(=O)O", "pEC50": 7.19}
{"molecule": "COC[C@H]1N(c2cccc(-c3cccc(C)c3OCc3ccc4c(c3)CN(C3CCOCC3)CC4)n2)C[C@@H]2C[C@@]21C(=O)O", "pEC50": 7.29}
{"molecule": "CO[C@H]1CN(c2cccc(-c3cccc(C)c3OCc3cc(F)c4c(c3)CCN(C3CCOCC3)CC4)n2)CC[C@H]1C(=O)O", "pEC50": 8.30}
{"molecule": "COCc1cc(COc2c(C)cccc2-c2cccc(N3CC[C@H](C(=O)O)[C@H](OC)C3)n2)cc2c1CN(C1CCOC1)CC2 (some centres unmarked)", "pEC50": 6.64}
{"molecule": "Cc1cc(COc2c(C)cccc2-c2csc(N3C[C@H]4C[C@@]4(C(=O)O)[C@@H]3C)n2)cc2c1CN(C1CCOCC1)CC2", "pEC50": 7.55}
{"molecule": "CO[C@@H]1CN(c2cccc(-c3cccc(C)c3OCc3ccc4c(c3C)CCN(C3CCOCC3)C4)n2)CC[C@@H]1C(=O)O", "pEC50": 7.85}
{"molecule": "Cc1ccc(OCc2ccc3c(c2)CCN(C2CCOCC2)C3)c(-c2csc(N3C[C@@H]4C[C@]4(C(=O)O)[C@H]3C)n2)c1", "pEC50": 7.85}
{"molecule": "Cc1c(COc2ccccc2-c2cccc(N3CC[C@@]4(C(=O)O)C[C@H]4C3)n2)ccc2c1CCN(C(C)c1ccccn1)C2 (some centres unmarked)", "pEC50": 8.52}
{"molecule": "CO[C@@H]1CN(c2cccc(-c3cccc(C)c3OCc3ccc4c(c3)C(C)(C)CN(C3COC3)CC4)n2)CC[C@@H]1C(=O)O", "pEC50": 9.00}
{"molecule": "CO[C@@H]1CN(c2cccc(-c3cc(C)ccc3OCc3ccc4c(c3)CCN(C3CCOCC3)C4)n2)CC[C@@H]1C(=O)O", "pEC50": 7.70}
